- METHOD DESCRIPTION: Shn3 3'UTR reporter inhibitors, dose response, cell-based, Clone20 osteoblasts, firefly luciferase, cherry-picked (AID 624132)
- PARTICULARS: Clone20 osteoblast Shn3 3'UTR firefly luciferase, 24 h; series mostly up to 35 µM
Hit rate of the full screen: of about 1,600 compounds, about 1,500 (94%) were called active. The set was probably picked from earlier hits. Not all results are given here. Entries with a potency or affinity are not part of this list. Results filed as inconclusive are left out.
TEST READOUT: activity change, negative = inhibition

Look over these answered cases.
CSCCC(NC(=O)c1ccccc1)C(=O)OCC(=O)N(C)CCC#N (stereo unspecified); 5.19% [at 8 µM] (inactive)
O=C(CSc1nc2[nH]ncc2c(=O)[nH]1)Nc1ccccc1C(F)(F)F; inactive
O=C(NNc1ccccc1)C(=O)NNS(=O)(=O)c1ccc(CCCl)cc1; inactive
CC1CCN(C(=O)c2ccc(N3C(=O)C4CCC(C)CC4C3=O)cc2)CC1 (stereo unspecified); inactive
Cc1ccc(NC(=O)C2CCCN(S(=O)(=O)c3c(C)noc3C)C2)cc1 (stereo unspecified); inactive

Turning now to a further record.
Asked: What does the record list as activity change, negative = inhibition for O=C(CSc1nnc(Nc2ccccc2)s1)NC1CCS(=O)(=O)C1 (stereo unspecified) ?
Given back: inactive
